Assay: Stability of analytes in dog plasma (QC samples)
Type: in vitro ADME
Settings: n = 3, high QC: nominal 200 ng/mL baicalin, 1000 ursodeoxycholic acid, 100 chenodeoxycholic acid and chlorogenic acid
Measured Freeze-thaw stability (3 cycles) Mean ± S.D. concentration, listed per entry.

Worked cases, Freeze-thaw stability (3 cycles) Mean ± S.D. concentration given:
molecule	recorded-result
C[C@H](CCC(=O)O)[C@H]1CC[C@H]2[C@@H]3[C@@H](O)C[C@@H]4C[C@H](O)CC[C@]4(C)[C@H]3CC[C@]12C [Ursodeoxycholic acid, ursodeoxycholic acid]	1048.41 ± 75.10 ng/mL
O=C(O)[C@H]1O[C@@H](Oc2cc3oc(-c4ccccc4)cc(=O)c3c(O)c2O)[C@H](O)[C@@H](O)[C@@H]1O [Baicalin, baicalin]	202.81 ± 10.87 ng/mL
C[C@H](CCC(=O)O)[C@H]1CC[C@H]2[C@@H]3[C@H](O)C[C@@H]4C[C@H](O)CC[C@]4(C)[C@H]3CC[C@]12C [Chenodeoxycholic acid, chenodeoxycholic acid]	95.70 ± 4.66 ng/mL

Next molecule, please.
response.value for O=C(/C=C/c1ccc(O)c(O)c1)O[C@@H]1C[C@](O)(C(=O)O)C[C@@H](O)[C@H]1O [Chlorogenic acid, chlorogenic acid] (field: Freeze-thaw stability (3 cycles) Mean ± S.D. concentration) = 95.65 ± 3.72 ng/mL

Ref: paper PMC9721025
